Answer each item with its documented IC50.
biological target: Cathepsin D (Homo sapiens, UniProt P07339); assay: Fluorescence Resonance Energy Transfer Assay: Recombinant Cat D was expressed in CHO cells. The assay buffer for CathepsinD is 0.05 M citrate pH 3.5, 10% DMSO final, 5 mM CHAPS. The Cat D enzyme (9 nM) is pre-incubated for one hour with inhibitors, typically in about 1 uL of DMSO according to a serial dilution, is added thereto. The assays are effectively started by the addition of different FRET substrates (20 nM for Cat D) and the combination is incubated for one hour. The FRET assay is terminated with by addition of Tris buffer, which raises the pH to neutrality, and the fluorescence is determined. The FRET substrate is a peptide with commercially available fluorophore and quencher, on opposite sides of the BACE cleavage site. The Cat D substrate peptide sequence is based on sequence #1 of Table 1 from Gulnik et al. FEBS Letters v413 p379-384 1997. Proteolytic cleavage of the FRET substrate releases quenching of fluorescence (Cat D excitation 500 nm and emission 580 nm).
Sequence (P07339 65-162 limits assumed): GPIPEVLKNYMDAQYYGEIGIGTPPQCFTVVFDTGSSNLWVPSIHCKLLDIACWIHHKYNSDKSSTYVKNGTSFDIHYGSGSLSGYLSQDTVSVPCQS
Sequence (P07339 169-412 limits assumed): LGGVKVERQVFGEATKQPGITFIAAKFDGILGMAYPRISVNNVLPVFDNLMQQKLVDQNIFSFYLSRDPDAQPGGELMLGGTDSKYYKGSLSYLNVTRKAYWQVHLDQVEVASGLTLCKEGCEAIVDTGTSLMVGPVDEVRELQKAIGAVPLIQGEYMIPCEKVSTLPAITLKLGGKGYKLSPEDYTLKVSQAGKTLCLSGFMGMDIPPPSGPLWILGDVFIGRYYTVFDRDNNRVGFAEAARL
Numbers only, in µM.

> print(dat)
                                chem.smiles  units.symbol  observed.measurement
1  Cc1cc(NC(=O)c2ccc(Cl)cc2CF)cc([C@@]2(C(F)F)N=C(N)O[C@@H]3C[C@@H]32)c1F            µM                   171

Please state IC50 for every compound in the list that follows.
1. NC1=N[C@](CF)(c2cc(NC(=O)c3ccc(Cl)cn3)cc(F)c2F)[C@H]2C[C@H]2O1
2. NC1=N[C@@](c2cc(NC(=O)c3ncc(Br)cn3)ccc2F)(C(F)F)[C@H]2C[C@H]2O1

RESULT:
[229, 1020]

QUERY: Would you mind telling me what IC50 value was observed for NC1=N[C@](CF)(c2cc(NC(=O)c3ncc(Cl)cc3CO)ccc2Cl)[C@H]2C[C@H]2O1 ?
RESULT: 533

FYI, the data here is from ChEMBL document CHEMBL3639225.
